assay: protein stability index of a GFP-peptide fusion (yeast GPS) (PSI 1-4); higher = more stable; sorted into four equal gates, so the index is relative within each strain; conditions: san1∆
Entries and their measured protein stability index follow.
parameter: protein stability index

sequence.text: LSDIETAVNGIDTDLFG [YGL172W/NUP49]
data.value: 3.2

sequence.text: EDCDLVIMALMLMSKIG [POP5]
data.value: 1.81

sequence.text: SVLLQQLLTPGSKISSN [YGL172W/NUP49]
data.value: 3.09

sequence.text: SWRNITNLSGGEKTLSS [SMC4]
data.value: 2.81

sequence.text: NNNNTIDESMPDTAIDS [GRR1]
data.value: 2.81

sequence.text: IERLTKRQFNNSYWLII [ITC1]
data.value: 2.16

sequence.text: FLEKEKQLTLLRSKLFQ [SMC4]
data.value: 1.86

sequence.text: ITLENITRLCQTLGLES [MED1]
data.value: 1.91

sequence.text: RIKEMYWKLWIDEPFNL [FAS1]
data.value: 2.76

sequence.text: RELFVMAREHAPSIIFM [RPT6]
data.value: 1.4

sequence.text: ERTKLQEHTIFTQLKKN [SNU114]
data.value: 1.97

---

experiment: protein stability index of a GFP-peptide fusion (yeast GPS) (PSI 1-4); higher = more stable; sorted into four equal gates, so the index is relative within each strain; settings: ubr1∆
Output satisfied for protein stability index not less than 3; output not satisfied otherwise.

sequence.text: IIKMTIPYAAKLLFQEL [RET1]
class.name: not satisfied
//
sequence.text: FDKDLERDTFSDFTFPE [DIS3]
class.name: not satisfied
//
sequence.text: VVLRLYLKDNITLLTRQ [GRR1]
class.name: not satisfied
//
sequence.text: LDDWISIGYETELKKIT [IRR1]
class.name: not satisfied
//
sequence.text: SSLLSRLISSKMPGGFT [FAS2]
class.name: not satisfied
//
sequence.text: LSKLEKALDRHEFFIAN [SRP68]
class.name: not satisfied
//
sequence.text: EAGLQLCRQGHNMLNLL [PRP8]
class.name: not satisfied
//
sequence.text: FKATIQILQGICKNCSA [RPO31]
class.name: not satisfied
//
sequence.text: LSMNIAPRLRLEDIFQQ [RET1]
class.name: not satisfied
//
sequence.text: KVIEEQLKHTKLALAEN [SMC4]
class.name: not satisfied
//
sequence.text: SEGFEPTFSTHAQLLLS [PRP8]
class.name: not satisfied
//
sequence.text: EFNSIDRVIFRVPIRSE [PRP8]
class.name: satisfied
//
sequence.text: CINKWIKTRDACPLDNQ [HRT1]
class.name: satisfied
//
sequence.text: EEERRKKRESGVEEEEE [SNF2]
class.name: satisfied
//
sequence.text: NTENVESVPTPANAEPQ [ITC1]
class.name: satisfied
//
sequence.text: TEGRSRDGGLRLGEMER [RET1]
class.name: not satisfied
//
sequence.text: QELAKSIRSRRPYQVNV [PRE1]
class.name: satisfied
//
sequence.text: KRVPNPNFLGNCNIKDF [SWP82]
class.name: not satisfied
//
sequence.text: LLVDKDANGVSLFELIV [YJL039C/NUP192]
class.name: satisfied
//
sequence.text: PKAISNFLIKLSELSPG [YCS4]
class.name: not satisfied
//
sequence.text: DAIWSLVFQLAKNFSAQ [SRB8]
class.name: not satisfied
//
sequence.text: IGGMRVDENGDPIWQHQ [RET1]
class.name: satisfied
//
sequence.text: KCVVIHNGSHRTVAGFS [ARP7]
class.name: not satisfied
